- ASSAY_SUMMARY: Quantitative High-Throughput drug screen in 47 multiple myeloma cell lines against the NCATS MIPE library collection: KMS28BM_JCRB cell viability assay (AID 1919874); also: nearly all actives have a fitted effect of over 35% in size
- TEST_CONTEXT: CellTiter-Glo ATP, 48 h; series mostly up to 45.8 µM
Inconclusive results are not listed. Calls of active or inactive are those of the source. Calls follow the shape of the dose curve; as a rule, active = well fitted cell-killing curve with a large enough effect; inconclusive = small, poorly fitted or top-dose-only effect, or effect the other way; inactive = no such curve, though single readings can be large or run the other way.
Outcomes you can answer with include only these: yes for active, no for inactive

// query Field: outcome | Entry: C[C@@H]1CC[C@@]2(OC1)OC1CC3C4CC=C5CC(O)CCC5(C)C4CCC3(C)C1[C@@H]2C (stereo not given in full)
// result no

// query Field: outcome | Entry: C=CC(=O)Nc1cccc(Nc2nc(NC3CCC(N(C)C)CC3)nc3c2ncn3C(C)C)c1 (stereo not given)
// result yes

// query Field: outcome | Entry: O=C1NC(=O)C(=Cc2ccc3nccc(-c4ccncc4)c3c2)S1
// result yes

// query Field: outcome | Entry: CC(=O)OC[C@@H]1O[C@@H](n2ccc(=O)[nH]c2=O)[C@H](OC(C)=O)[C@H]1OC(C)=O
// result no

// query Field: outcome | Entry: CC(=O)O[C@H]1C[C@@H]2CC[C@H]3[C@H]4C[C@H]([N+]5(C)CCCCC5)[C@@H](OC(C)=O)[C@@]4(C)CC[C@@H]3[C@@]2(C)C[C@H]1[N+]1(C)CCCCC1
// result no

---

- Tested on: UISO
- ASSAY_SUMMARY: qHTS assay to identify novel small-molecules to repurpose for Merkel cell carcinoma treatment (AID 1296009); also: nearly all actives have a fitted effect of over 60% in size
- TEST_CONTEXT: MCC and control cell lines, CellTiter-Glo viability, 72 h; series mostly up to 46 µM
Records with an inconclusive call do not appear. Calls of active or inactive are those of the source. The call rests on the fitted dose curve; in most records, active means well fitted inhibition curve with a large enough effect; inconclusive means small, poorly fitted or top-dose-only effect; inactive means flat fitted curve, though single readings scatter.
Outcomes you can answer with include only these: yes (1) (active), no (0) (inactive)

// query Field: outcome | Entry: COc1ccc(C(C)=O)c(O)c1
// result no (0)

// query Field: outcome | Entry: CCN(CC)CCNC(=O)c1c(C)[nH]c(C=C2C(=O)Nc3ccc(F)cc32)c1C
// result yes (1)

// query Field: outcome | Entry: CC(C)(O)[C@H]1CC[C@@](C)([C@H]2[C@@H](O)C[C@@]3(C)[C@@H]4C[C@H](O[C@@H]5O[C@H](CO)[C@@H](O)[C@H](O)[C@@H]5O)[C@H]5C(C)(C)[C@@H](O[C@@H]6OC[C@@H](O)[C@H](O)[C@@H]6O)CC[C@@]56C[C@@]46CC[C@]23C)O1
// result no (0)

// query Field: outcome | Entry: CC(O)(C#Cc1ccc2c(c1)N(c1nc(N)ncc1Cl)CC2)c1nccs1 (stereo not drawn)
// result no (0)

// query Field: outcome | Entry: CN[C@H]1[C@@H](O)[C@@H]2O[C@@H]3O[C@H](C)CC(=O)[C@]3(O)O[C@@H]2[C@@H](NC)[C@H]1O
// result yes (1)

// query Field: outcome | Entry: CN(C)CCN1C(=O)c2cccc3cc(N)cc(c23)C1=O
// result yes (1)

// query Field: outcome | Entry: N#Cc1c(NC(=O)c2cccc3ccccc23)sc2c1CCCC2
// result yes (1)

// query Field: outcome | Entry: COc1ccc(C[C@@H](C)[C@@H](C)Cc2ccc(OC)c(OC)c2)cc1OC
// result yes (1)
